B1: library; numbered along this chain (parent)
chain: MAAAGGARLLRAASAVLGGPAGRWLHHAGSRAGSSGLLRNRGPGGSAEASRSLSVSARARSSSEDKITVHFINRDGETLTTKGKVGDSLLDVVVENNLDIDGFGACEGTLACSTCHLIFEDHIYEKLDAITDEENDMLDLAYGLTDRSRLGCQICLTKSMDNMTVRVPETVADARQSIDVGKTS

# Variants of: B1
# assay.explanation: scaled log2 fold change in cell abundance, elesclomol vs control (0 = silent mean, 1 = nonsense mean) (scaled log2 ratio); higher = higher viability under elesclomol (loss of FDX1 cuproptosis function);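 note: variant abundance is its share of total variant reads in each endpoint sample, from next-generation sequencing of the integrated ORF PCR-amplified out of genomic DNA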
# settings: with ABC1 FDX1 KO; elesclomol 5 nM; glucose 10 mM; 14 days
Reported scaled log2 fold change is given for each of the following variants.
Just the number.

Use the examples below as a reference point.
- K84P: 0.11
- S54W: 0.208
- C152V: 1.23
- E169C: -0.223
- D65F: -0.512
- D136Q: 0.344
- G36N: 0.0293
- G86T: 0.117

The measured scaled log2 fold change associated with `V93A` reads -0.15

Looking up `G45I` , I found its scaled log2 fold change recorded as -0.00298

Entry `T164E` — recorded scaled log2 fold change = -0.00918

For `C112D` the variant record lists scaled log2 fold change as 0.906

Reported scaled log2 fold change of `D161N` : 0.064

`G86Y` has a reported scaled log2 fold change of 0.0464

# scaled log2 fold change of `T145K` = -0.0518

Consider `L110V` . Its measured scaled log2 fold change is 0.108
